- Target desc: D(3) dopamine receptor (Homo sapiens, UniProt P35462)
- Sequence (P35462 whole entry): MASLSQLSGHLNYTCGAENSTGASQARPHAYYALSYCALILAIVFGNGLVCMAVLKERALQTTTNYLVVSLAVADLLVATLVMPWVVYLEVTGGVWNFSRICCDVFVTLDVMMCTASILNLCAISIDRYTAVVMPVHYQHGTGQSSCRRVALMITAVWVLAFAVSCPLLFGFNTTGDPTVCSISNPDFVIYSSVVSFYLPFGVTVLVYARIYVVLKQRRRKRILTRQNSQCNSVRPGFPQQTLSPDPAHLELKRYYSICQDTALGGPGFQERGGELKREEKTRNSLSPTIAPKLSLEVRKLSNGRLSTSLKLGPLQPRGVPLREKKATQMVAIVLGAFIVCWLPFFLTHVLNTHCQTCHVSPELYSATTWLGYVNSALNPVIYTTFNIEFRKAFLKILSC
- Method description: Displacement of [3H]raclopride from human recombinant dopamine D3 receptor expressed in CHO-K1 cells incubated for 120 mins by liquid scintillation counting analysis
Value type: Ki (µM)

// known answers, use as guide
CCCN1CCN(c2cccc3c2CN(S(=O)(=O)c2ccccc2)C3)CC1
0.027
CCN1CCN(c2cccc3c2CN(S(=O)(=O)c2ccccc2)C3)CC1
0.073
CCN1CCC(c2cccc3c2CCN3S(=O)(=O)c2ccccc2)CC1
0.591
O=S(=O)(c1ccccc1)N1CCc2ccc(N3CCN(C4CCC4)CC3)cc21
0.173
O=S(=O)(c1ccccc1)N1CCc2cc(C3CCN(C4CCC4)CC3)ccc21
1.67
O=S(=O)(c1ccccc1)N1CCc2ccc(N3CCNCC3)cc21
0.33

P. O=S(=O)(c1ccccc1)N1CCc2c(N3CCN(C4CCC4)CC3)cccc21
Q. CCCN1CCN(c2ccc3c(c2)CCN3S(=O)(=O)c2ccccc2)CC1
Of P and Q , which one carries the higher reported Ki? Write the label of whichever entry you select.
P

1. O=S(=O)(c1ccccc1)N1CCc2ccc(C3CCN(C4CCC4)CC3)cc21
2. CN1CCN(c2ccc3c(c2)N(S(=O)(=O)c2ccccc2)CC3)CC1
Please indicate which item has the smaller measured Ki: 1 versus 2 Write down the label of the entry you select.
2

###

- Target desc: D(3) dopamine receptor (Homo sapiens, UniProt P35462)
- Method description: Displacement of [3H]raclopride from human recombinant dopamine D3 receptor expressed in CHO-K1 cells at 1 uM incubated for 120 mins by liquid scintillation counting analysis
- Format: cell-based
Value type: inhibition (%)

CCN1CCC(c2ccc3c(c2)CN(S(=O)(=O)c2ccccc2)C3)CC1
32
CN1CCC(c2ccc3c(c2)N(S(=O)(=O)c2ccccc2)CC3)CC1
75
CCN1CCN(c2ccc3c(c2)N(S(=O)(=O)c2ccccc2)CC3)CC1
95
O=S(=O)(c1ccccc1)N1Cc2ccc(N3CCNCC3)cc2C1
37

P. CCCN1CCN(c2ccc3c(c2)CN(S(=O)(=O)c2ccccc2)C3)CC1
Q. O=S(=O)(c1ccccc1)N1CCc2cc(C3CCNCC3)ccc21
Hello, I am sorting some records. Could you say if P or Q has the smaller inhibition value? When you have decided, please share the label of that item.
Q

###

- Target desc: D(2) dopamine receptor (Homo sapiens, UniProt P14416)
- Sequence (P14416 whole entry): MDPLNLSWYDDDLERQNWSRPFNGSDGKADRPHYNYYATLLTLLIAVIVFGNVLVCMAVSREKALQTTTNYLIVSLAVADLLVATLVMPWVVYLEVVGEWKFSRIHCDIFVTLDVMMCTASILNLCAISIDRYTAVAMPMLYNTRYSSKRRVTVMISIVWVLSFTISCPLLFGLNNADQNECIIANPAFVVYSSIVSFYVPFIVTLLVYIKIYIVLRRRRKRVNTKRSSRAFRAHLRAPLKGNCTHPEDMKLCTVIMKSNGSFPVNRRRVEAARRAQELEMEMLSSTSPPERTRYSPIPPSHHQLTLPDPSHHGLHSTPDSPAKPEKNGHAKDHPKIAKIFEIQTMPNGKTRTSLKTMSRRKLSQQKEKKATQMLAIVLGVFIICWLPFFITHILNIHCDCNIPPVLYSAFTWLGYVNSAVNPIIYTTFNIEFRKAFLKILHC
- Method description: Displacement of [3H]raclopride from human recombinant dopamine D2 long receptor expressed in CHO-K1 cells incubated for 120 mins by scintillation counting analysis
Value type: Ki (µM)

Example entries and their recorded answers appear below.
CCN1CCN(c2ccc3c(c2)N(S(=O)(=O)c2ccccc2)CC3)CC1
0.136
O=S(=O)(c1ccccc1)N1CCc2c(C3CCN(C4CCC4)CC3)cccc21
1.04

1. CCN1CCN(c2ccc3c(c2)CCN3S(=O)(=O)c2ccccc2)CC1
2. O=S(=O)(c1ccccc1)N1Cc2cccc(C3CCN(C4CCC4)CC3)c2C1
Which is greater in Ki, the first item 1 or the second item 2 ? Select an item and report its label.
2

a. CN1CCN(c2ccc3c(c2)N(S(=O)(=O)c2ccccc2)CC3)CC1
b. CCCN1CCN(c2cccc3c2CCN3S(=O)(=O)c2ccccc2)CC1
c. CCN1CCN(c2cccc3c2CCN3S(=O)(=O)c2ccccc2)CC1
d. CN1CCN(c2cccc3c2CCN3S(=O)(=O)c2ccccc2)CC1
e. O=S(=O)(c1ccccc1)N1Cc2cccc(N3CCN(C4CCC4)CC3)c2C1
Please order the records by their reported Ki, lowest number first. Sort and list the labels as requested.
b, c, d, a, e
(b: 0.042 µM, c: 0.084 µM, d: 0.211 µM, a: 0.458 µM, e: 1.59 µM)

###

- Target desc: UniProt:P50406
- Method description: Displacement of [3H]LSD from human recombinant 5-HT6 receptor expressed in CHO-K1 cells at 1 uM incubated for 3 hrs by scintillation counting analysis
- Format: cell-based
Value type: inhibition (%)

A. O=S(=O)(c1ccccc1)N1Cc2ccc(C3CCNCC3)cc2C1
B. O=S(=O)(c1ccccc1)N1Cc2ccc(N3CCN(C4CCC4)CC3)cc2C1
C. CN1CCN(c2ccc3c(c2)N(S(=O)(=O)c2ccccc2)CC3)CC1
Order the records, beginning with the lowest inhibition and ending with the highest. Provide your answer as the labels ordered per the instruction.
B, A, C

I. CCN1CCC(c2cccc3c2CN(S(=O)(=O)c2ccccc2)C3)CC1
II. O=S(=O)(c1ccccc1)N1CCc2c(N3CCN(C4CCC4)CC3)cccc21
Higher inhibition between I and II ? Indicate which entry you chose by stating its label.
I
(I: 98%, II: 51%)

###

- Target desc: Histamine H3 receptor (Homo sapiens)
- Method description: Displacement of N-alpha-[methyl-3H]methylhistamine dihydrochloride from human recombinant histamine H3 receptor expressed in CHO-K1 cells at 1 uM incubated for 30 mins by liquid scintillation counting analysis
- Type: cell-based
Value type: inhibition (%)

CCCN1CCN(c2ccc3c(c2)N(S(=O)(=O)c2ccccc2)CC3)CC1
16

A. CN1CCN(c2ccc3c(c2)CN(S(=O)(=O)c2ccccc2)C3)CC1
B. CCCN1CCC(c2cccc3c2CCN3S(=O)(=O)c2ccccc2)CC1
Which has the higher inhibition, A or B ? Lab note: record the label of whichever item you select.
A

A. CCN1CCN(c2ccc3c(c2)CN(S(=O)(=O)c2ccccc2)C3)CC1
B. O=S(=O)(c1ccccc1)N1CCc2ccc(C3CCN(C4CCC4)CC3)cc21
C. O=S(=O)(c1ccccc1)N1CCc2cc(C3CCNCC3)ccc21
Form: Sort by [inhibition] Order [ ascending ] Hello, could you send the labels back in the order asked? Thank you.
B, C, A
(B: 1%, C: 2%, A: 60%)

###

- Target desc: D(2) dopamine receptor (Homo sapiens)
- Method description: Displacement of [3H]raclopride from human recombinant dopamine D2 long receptor expressed in CHO-K1 cells at 1 uM incubated for 120 mins by scintillation counting analysis
- Format: cell-based
Value type: inhibition (%)

A. O=S(=O)(c1ccccc1)N1CCc2cc(C3CCN(C4CCC4)CC3)ccc21
B. O=S(=O)(c1ccccc1)N1Cc2cccc(C3CCN(C4CCC4)CC3)c2C1
Given the listed items, does A or B have the lesser reported inhibition? Indicate your choice by writing its label.
A

1. CN1CCC(c2ccc3c(c2)CN(S(=O)(=O)c2ccccc2)C3)CC1
2. O=S(=O)(c1ccccc1)N1CCc2cc(C3CCNCC3)ccc21
3. CN1CCN(c2cccc3c2CCN3S(=O)(=O)c2ccccc2)CC1
4. CCCN1CCC(c2ccc3c(c2)CCN3S(=O)(=O)c2ccccc2)CC1
5. O=S(=O)(c1ccccc1)N1Cc2ccc(N3CCN(C4CCC4)CC3)cc2C1
List from greatest to least inhibition. Put the labels in the requested order and write them down.
3, 4, 1, 2, 5

a. CN1CCC(c2cccc3c2CN(S(=O)(=O)c2ccccc2)C3)CC1
b. O=S(=O)(c1ccccc1)N1CCc2c(C3CCN(C4CCC4)CC3)cccc21
c. CCN1CCN(c2ccc3c(c2)CN(S(=O)(=O)c2ccccc2)C3)CC1
d. CCN1CCN(c2ccc3c(c2)N(S(=O)(=O)c2ccccc2)CC3)CC1
Please put the entries in order of rising inhibition. Give your ranking as a list of the labels in the requested order.
a, c, b, d

###

- Target desc: Histamine H3 receptor (Homo sapiens, UniProt Q9Y5N1)
- Sequence (Q9Y5N1 whole entry): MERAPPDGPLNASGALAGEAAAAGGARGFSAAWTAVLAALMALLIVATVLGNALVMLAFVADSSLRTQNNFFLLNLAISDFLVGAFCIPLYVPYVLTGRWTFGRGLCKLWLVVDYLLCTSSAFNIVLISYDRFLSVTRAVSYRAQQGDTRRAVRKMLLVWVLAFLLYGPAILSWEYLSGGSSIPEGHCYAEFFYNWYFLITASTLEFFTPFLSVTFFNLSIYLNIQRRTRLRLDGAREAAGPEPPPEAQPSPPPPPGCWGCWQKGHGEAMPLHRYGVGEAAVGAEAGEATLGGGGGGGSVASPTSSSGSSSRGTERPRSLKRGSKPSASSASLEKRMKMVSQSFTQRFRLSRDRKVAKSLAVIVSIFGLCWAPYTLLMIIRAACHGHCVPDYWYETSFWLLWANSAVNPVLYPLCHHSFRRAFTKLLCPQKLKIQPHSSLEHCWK
- Method description: Displacement of N-alpha-[methyl-3H]methylhistamine dihydrochloride from human recombinant histamine H3 receptor expressed in CHO-K1 cells incubated for 30 mins by liquid scintillation counting analysis
pKi: −log10 of the molar value.
Value type: pKi

Guide cases for pKi, answers given:
CCN1CCN(c2ccc3c(c2)CN(S(=O)(=O)c2ccccc2)C3)CC1
6.53
CCN1CCC(c2cccc3c2CCN3S(=O)(=O)c2ccccc2)CC1
6.50
CN1CCC(c2ccc3c(c2)CCN3S(=O)(=O)c2ccccc2)CC1
6.52

I. CCN1CCN(c2cccc3c2CCN3S(=O)(=O)c2ccccc2)CC1
II. O=S(=O)(c1ccccc1)N1CCc2c(N3CCN(C4CCC4)CC3)cccc21
Quick check, higher pKi between I and II ? Write down the label attached to your selection.
I
(I: 6.46, II: 6.24)

###

- Target desc: 5-hydroxytryptamine receptor 6 (Homo sapiens, UniProt P50406)
- Sequence (P50406 whole entry): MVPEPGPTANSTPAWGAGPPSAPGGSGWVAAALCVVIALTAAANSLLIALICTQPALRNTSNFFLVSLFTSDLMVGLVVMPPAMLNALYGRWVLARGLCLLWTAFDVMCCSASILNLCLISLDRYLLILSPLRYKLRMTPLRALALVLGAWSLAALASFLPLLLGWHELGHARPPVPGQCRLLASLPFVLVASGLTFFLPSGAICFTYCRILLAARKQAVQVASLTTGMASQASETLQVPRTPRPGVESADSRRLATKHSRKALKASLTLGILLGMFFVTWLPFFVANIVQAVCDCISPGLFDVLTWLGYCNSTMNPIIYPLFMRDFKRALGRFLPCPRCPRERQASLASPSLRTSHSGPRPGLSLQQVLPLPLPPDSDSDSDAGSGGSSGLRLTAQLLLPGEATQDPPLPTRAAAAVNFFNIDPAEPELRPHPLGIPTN
- Method description: Displacement of [3H]LSD from human recombinant 5-HT6 receptor expressed in CHO-K1 cells at 1 uM incubated for 3 hrs by scintillation counting analysis
- Assay type: cell-based
Value type: inhibition (%)

Answered examples (4):
CN1CCN(c2cccc3c2CN(S(=O)(=O)c2ccccc2)C3)CC1
100
CCCN1CCC(c2ccc3c(c2)N(S(=O)(=O)c2ccccc2)CC3)CC1
81
O=S(=O)(c1ccccc1)N1CCc2ccc(N3CCNCC3)cc21
95
O=S(=O)(c1ccccc1)N1CCc2c(C3CCN(C4CCC4)CC3)cccc21
1

P. O=S(=O)(c1ccccc1)N1CCc2cc(C3CCN(C4CCC4)CC3)ccc21
Q. O=S(=O)(c1ccccc1)N1CCc2ccc(C3CCN(C4CCC4)CC3)cc21
Return label of the item with the larger inhibition. Candidates: P , Q . Select an item and report its label.
Q
(Q: 62%, P: -9%)
